Values were extracted from patent US7897633B2.

# TESTED SYSTEM: glutaminyl cyclase (QC) (Homo sapiens)
# Sequence (Q16769 29-361): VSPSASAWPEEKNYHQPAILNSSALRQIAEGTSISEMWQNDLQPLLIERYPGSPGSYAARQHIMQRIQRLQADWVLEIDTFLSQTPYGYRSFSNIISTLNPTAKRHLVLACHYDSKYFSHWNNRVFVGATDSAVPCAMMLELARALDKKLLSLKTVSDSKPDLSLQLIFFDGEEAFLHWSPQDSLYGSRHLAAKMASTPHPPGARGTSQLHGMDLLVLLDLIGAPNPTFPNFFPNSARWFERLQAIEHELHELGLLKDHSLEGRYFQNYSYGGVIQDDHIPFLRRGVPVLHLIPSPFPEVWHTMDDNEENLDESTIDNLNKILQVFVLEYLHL
# PROCEDURE TEXT: Inhibitor assay for glutaminyl cyclase (QC) activity
# ASSAY CONTEXT: rapid test of QC-inhibition: 4 mM inhibitor, substrate concentration at 1 KM
// values below are reported Res. Act. (%)

>  <COMPOUND>
S=C(NCCCn1ccnc1)NCCN1CCOCC1 [Example 48]

>  <TESTED SYSTEM>
glutaminyl cyclase (QC) (Homo sapiens)

>  <Res. Act. (%)>
55.0

$$$$
>  <COMPOUND>
CC(=O)c1ccc(NC(=S)NCCCn2ccnc2)cc1 [Example 10]

>  <TESTED SYSTEM>
glutaminyl cyclase (QC) (Homo sapiens)

>  <Res. Act. (%)>
17.0

$$$$
>  <COMPOUND>
COc1ccc(NC(=S)NCCCn2ccnc2)cc1 [Example 11]

>  <TESTED SYSTEM>
glutaminyl cyclase (QC) (Homo sapiens)

>  <Res. Act. (%)>
9.7

$$$$
>  <COMPOUND>
CCOc1ccc(NC(=S)NCCCn2ccnc2)cc1 [Example 27]

>  <TESTED SYSTEM>
glutaminyl cyclase (QC) (Homo sapiens)

>  <Res. Act. (%)>
7.2

$$$$
>  <COMPOUND>
S=C(NCCCn1ccnc1)NCc1ccc2c(c1)OCO2 [Example 47]

>  <TESTED SYSTEM>
glutaminyl cyclase (QC) (Homo sapiens)

>  <Res. Act. (%)>
42.7

$$$$
>  <COMPOUND>
S=C(NCCCn1ccnc1)NCc1ccco1 [Example 45]

>  <TESTED SYSTEM>
glutaminyl cyclase (QC) (Homo sapiens)

>  <Res. Act. (%)>
61.4

$$$$
>  <COMPOUND>
S=C(NCCCn1ccnc1)Nc1ccc(I)cc1 [Example 38]

>  <TESTED SYSTEM>
glutaminyl cyclase (QC) (Homo sapiens)

>  <Res. Act. (%)>
23.5

$$$$
>  <COMPOUND>
O=C(NCCCn1ccnc1)Nc1cc(F)cc2c1OCOC2 [Example 97]

>  <TESTED SYSTEM>
glutaminyl cyclase (QC) (Homo sapiens)

>  <Res. Act. (%)>
19.0

$$$$
>  <COMPOUND>
N#Cc1ccc(NC(=S)NCCCn2ccnc2)cc1 [Example 22]

>  <TESTED SYSTEM>
glutaminyl cyclase (QC) (Homo sapiens)

>  <Res. Act. (%)>
9.0

$$$$
>  <COMPOUND>
CCCCNC(=S)NCCCn1ccnc1 [Example 43]

>  <TESTED SYSTEM>
glutaminyl cyclase (QC) (Homo sapiens)

>  <Res. Act. (%)>
53.8

$$$$
>  <COMPOUND>
CCCCCCCOc1ccc(NC(=O)NCCCn2ccnc2)cc1 [Example 99]

>  <TESTED SYSTEM>
glutaminyl cyclase (QC) (Homo sapiens)

>  <Res. Act. (%)>
5.6

$$$$
>  <COMPOUND>
O=S(=O)(c1ccc(NC(=S)NCCCn2ccnc2)cc1)N1CCCCC1 [Example 20]

>  <TESTED SYSTEM>
glutaminyl cyclase (QC) (Homo sapiens)

>  <Res. Act. (%)>
8.5

$$$$
>  <COMPOUND>
COc1ccc(NC(=O)NCCCn2ccnc2)cc1OC1CCCC1 [Example 98]

>  <TESTED SYSTEM>
glutaminyl cyclase (QC) (Homo sapiens)

>  <Res. Act. (%)>
2.87

$$$$
>  <COMPOUND>
S=C(NCCCn1ccnc1)NCC1CCCO1 (stereo not shown) [Example 46]

>  <TESTED SYSTEM>
glutaminyl cyclase (QC) (Homo sapiens)

>  <Res. Act. (%)>
46.0

$$$$
>  <COMPOUND>
N#CN=C(NCCCn1ccnc1)NCc1ccccc1 [Example 68]

>  <TESTED SYSTEM>
glutaminyl cyclase (QC) (Homo sapiens)

>  <Res. Act. (%)>
22.5

$$$$
>  <COMPOUND>
S=C(NCCCn1ccnc1)NC1CCCCCCC1 [Example 44]

>  <TESTED SYSTEM>
glutaminyl cyclase (QC) (Homo sapiens)

>  <Res. Act. (%)>
33.1

$$$$
>  <COMPOUND>
COc1ccc(NC(=S)NCc2ccccc2Cn2ccnc2)cc1OC [Example 103]

>  <TESTED SYSTEM>
glutaminyl cyclase (QC) (Homo sapiens)

>  <Res. Act. (%)>
16.27

$$$$
>  <COMPOUND>
FC(F)(F)c1ccc(NC(=S)NCCCn2ccnc2)cc1 [Example 8]

>  <TESTED SYSTEM>
glutaminyl cyclase (QC) (Homo sapiens)

>  <Res. Act. (%)>
38.5

$$$$
>  <COMPOUND>
S=C(NCCCn1ccnc1)Nc1ccc(-c2cnco2)cc1 [Example 17]

>  <TESTED SYSTEM>
glutaminyl cyclase (QC) (Homo sapiens)

>  <Res. Act. (%)>
3.64

$$$$

---

// values below are reported IC50
# TESTED SYSTEM: glutaminyl cyclase (QC) (Homo sapiens)
# PROCEDURE TEXT: Inhibitor assay for glutaminyl cyclase (QC) activity
MEASURED PARAMETER: IC50 (µM)

>  <SMILES TEXT>
CCCCCCCOc1ccc(NC(=O)NCCCn2ccnc2)cc1

>  <MEASURED PARAMETER>
IC50

>  <UNIT SYMBOL>
µM

>  <VAL>
9.9

$$$$
>  <SMILES TEXT>
S=C(NCCCn1ccnc1)NCCN1CCOCC1

>  <MEASURED PARAMETER>
IC50

>  <UNIT SYMBOL>
µM

>  <VAL>
13.3

$$$$

---

// values below are reported melting point
MEASURED PARAMETER: melting point

>  <COMPOUND>
COc1cc(NC(=S)NCCCn2ccnc2)cc(OC)c1

>  <VAL>
142 to 143 °C

$$$$
>  <COMPOUND>
COc1ccc(NC(=S)NCCCCn2ccnc2)cc1OC

>  <VAL>
114.5 to 116 °C

$$$$
>  <COMPOUND>
COc1cc(NC(=S)NCCCn2ccnc2)cc(OC)c1OC

>  <VAL>
124.5 to 125.5 °C

$$$$
>  <COMPOUND>
COc1ccc(NC(=S)CCCCn2ccnc2)cc1OC

>  <VAL>
128 to 128.5 °C

$$$$
>  <COMPOUND>
FC(F)(F)c1ccc(NC(=S)NCCCn2ccnc2)cc1 [Example 8]

>  <VAL>
154.5 to 155 °C

$$$$
>  <COMPOUND>
COc1ccc(C2(C(=S)NCCCn3ccnc3)CC2)cc1

>  <VAL>
129 to 129.5 °C

$$$$
>  <COMPOUND>
S=C(NCCCn1ccnc1)Nc1ccc2c(c1)OCO2

>  <VAL>
115 to 115.6 °C

$$$$
>  <COMPOUND>
S=C(NCCCn1ccnc1)C1(c2ccc(Cl)cc2)CCCC1

>  <VAL>
140 to 141 °C

$$$$
>  <COMPOUND>
S=C(NCCCn1ccnc1)Nc1ccc2c(c1)OCCO2

>  <VAL>
103 to 103.5 °C

$$$$
>  <COMPOUND>
CC(=O)c1ccc(NC(=S)NCCCn2ccnc2)cc1 [Example 10]

>  <VAL>
170 to 171 °C

$$$$
>  <COMPOUND>
COc1ccc(NC(=S)NC[C@@H](C)Cn2ccnc2)cc1OC

>  <VAL>
155 to 157.5 °C

$$$$
>  <COMPOUND>
COc1cccc(NC(=S)NCCCn2ccnc2)c1

>  <VAL>
89.5 to 90 °C

$$$$
>  <COMPOUND>
S=C(NCCCn1ccnc1)C1(c2ccc(Cl)cc2)CCC1

>  <VAL>
137.5 to 139 °C

$$$$
>  <COMPOUND>
CCc1ccc(NC(=S)NCCCn2ccnc2)cc1

>  <VAL>
100 to 100.5 °C

$$$$
>  <COMPOUND>
C[C@@H](C(=S)NCCCn1ccnc1)c1ccccc1

>  <VAL>
82 to 82.5 °C

$$$$
>  <COMPOUND>
COc1ccc(NC(=S)NCCn2ccnc2)cc1OC

>  <VAL>
157.5 to 159 °C

$$$$
>  <COMPOUND>
CSc1ccc(NC(=S)NCCCn2ccnc2)cc1 [Example 33]

>  <VAL>
140 to 140.5 °C

$$$$
>  <COMPOUND>
CNC(=S)NCCCn1ccnc1

>  <VAL>
122 to 122.5 °C

$$$$
>  <COMPOUND>
C[C@H](C(=S)NCCCn1ccnc1)c1ccccc1

>  <VAL>
82.5 to 83.5 °C

$$$$
>  <COMPOUND>
COc1ccc(NC(=S)NC[C@H](C)Cn2ccnc2)cc1OC

>  <VAL>
150.5 to 151.5 °C

$$$$
>  <COMPOUND>
S=C(NCCCn1ccnc1)NCc1ccccc1

>  <VAL>
127 to 128 °C

$$$$
>  <COMPOUND>
COc1ccc(CC(=S)NCCCn2ccnc2)cc1OC

>  <VAL>
148 to 150 °C

$$$$
>  <COMPOUND>
COc1ccc(NC(=S)NCCCn2ccnc2)c(OC)c1

>  <VAL>
120 to 120.5 °C

$$$$
>  <COMPOUND>
COc1ccc(NC(=S)NCC2(Cn3ccnc3)CC2)cc1OC

>  <VAL>
166.5 to 168.5 °C

$$$$
>  <COMPOUND>
COc1ccc(C2(C(=S)NCCCn3ccnc3)CCCCC2)cc1

>  <VAL>
162.5 to 164 °C

$$$$
>  <COMPOUND>
CC(C)(C)NC(=S)NCCCn1ccnc1

>  <VAL>
147 to 147.5 °C

$$$$
>  <COMPOUND>
CN(C)c1ccc(NC(=S)NCCCn2ccnc2)cc1

>  <VAL>
146.5 to 147 °C

$$$$
